Biological target: gastrin receptors or type-B cholecystokinin (CCK-B) receptors (Oryctolagus cuniculus)
Construct: Rabbit gastric mucous-membrane cells were prepared by conventional techniques; endogenous in cells; host or cells: freshly isolated rabbit gastric mucosal cells, enriched by elutriation to about 70% parietal cells
Sequence (P46627 1-452): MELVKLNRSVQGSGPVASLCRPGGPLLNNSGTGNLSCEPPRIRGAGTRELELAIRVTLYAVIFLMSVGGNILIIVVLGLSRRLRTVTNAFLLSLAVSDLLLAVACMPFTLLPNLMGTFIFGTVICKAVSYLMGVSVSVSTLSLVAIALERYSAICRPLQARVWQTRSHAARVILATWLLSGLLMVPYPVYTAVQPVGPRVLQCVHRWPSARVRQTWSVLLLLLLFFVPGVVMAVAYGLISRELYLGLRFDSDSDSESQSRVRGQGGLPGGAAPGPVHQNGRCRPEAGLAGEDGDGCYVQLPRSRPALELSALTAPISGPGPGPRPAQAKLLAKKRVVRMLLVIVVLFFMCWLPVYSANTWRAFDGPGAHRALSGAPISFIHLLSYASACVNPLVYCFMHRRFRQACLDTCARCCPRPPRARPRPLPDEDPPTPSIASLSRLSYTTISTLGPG
Test: Inhibition of the gastrin-induced increase of cytosolic calcium in rabbit gastric mucous-membrane cells (Fura 2)
Format: cell-based
Conditions: binding values taken from Table 3
Procedure: The parietal cells of the gastric mucous membrane are responsible for the secretion of HCl. They have specific membrane receptors which can be activated by gastrin and which have been defined as gastrin receptors or type-B cholecystokinin (CCK-B) receptors. […] The fluorescence was recorded with the use of a spectrofluorometer. […]
Please use 1 for Ratio IC50 Binding cortex / IC50 (gastric mucous cells) under 4 and 0 for everything else, ties included.

{"columns": ["molecule", "discrete-label"],
 "data": [
  ["CN(C(=O)CC[C@@H](NC(=O)c1cc(Cl)cc(Cl)c1)C(=O)N1CCC2(CCCC2)CC1)[C@@H](Cc1c[nH]c2ccccc12)C(=O)O", 0],
  ["CN(C(=O)CC[C@@H](NC(=O)c1cc(Cl)cc(Cl)c1)C(=O)N1CCC2(CCCC2)CC1)C(Cc1ccccc1)C(=O)O (stereo partly drawn)", 1],
  ["O=C(CC[C@@H](NC(=O)c1cc(Cl)cc(Cl)c1)C(=O)N1CCC2(CCCC2)CC1)N[C@H](COCc1ccccc1)C(=O)O", 0],
  ["CN(CC(=O)O)C(=O)CC[C@@H](NC(=O)c1cc(Cl)cc(Cl)c1)C(=O)N1CCC2(CCCC2)CC1", 1],
  ["O=C(O)C[C@H](Cc1ccccc1)NC(=O)CC[C@@H](NC(=O)c1cc(Cl)cc(Cl)c1)C(=O)N1CCC2(CCCC2)CC1", 0],
  ["O=C(CC[C@@H](NC(=O)c1cc(Cl)cc(Cl)c1)C(=O)N1CCC2(CCCC2)CC1)NC(Cc1c[nH]c2ccccc12)C(=O)O (stereo partly drawn)", 0]
]}

Data credit: patent US5962502A
